Value source: patent US20230234943A1

IC50 tested on Human TREX1 enzyme (amino acids 1-242) (Homo sapiens, UniProt Q9NSU2): recorded values
Sequence (Q9NSU2 1-242): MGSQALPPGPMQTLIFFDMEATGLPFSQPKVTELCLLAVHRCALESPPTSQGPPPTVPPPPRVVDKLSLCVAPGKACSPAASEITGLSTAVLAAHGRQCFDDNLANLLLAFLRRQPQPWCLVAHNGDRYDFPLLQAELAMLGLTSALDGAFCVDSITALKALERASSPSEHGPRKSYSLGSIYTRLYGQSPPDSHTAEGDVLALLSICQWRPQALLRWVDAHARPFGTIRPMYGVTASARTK

Answered cases to consult:
CNC(=O)c1ccc2nc(-c3cc(OC)c(O)c(O)c3F)n(C3CCC3)c2c1 [Example 309]	≤ 100 nM
COc1cc(-c2nc3ccc(C(=O)NC4CC(F)(F)C4)cc3n2C2(C)COC2)c(F)c(O)c1O [Example 205]	≤ 100 nM
COc1cc(-c2nc3ccc(C(=O)Nc4ccncc4)cc3n2C2(C)COC2)c(F)c(O)c1O [Example 248]	≤ 100 nM
COc1cc(-c2nc3cc(C4CCCCC4)ccc3[nH]2)cc(O)c1O [Example 75]	> 100000 nM
COc1cc(-c2nc3cc(N4C[C@H]5CC[C@@H](C4)N5C(=O)c4ccccc4)ccc3[nH]2)cc(O)c1O [Example 136]	> 100000 nM
COc1cc(-c2nc3ccc(C(O)C(F)(F)F)cc3n2C2(C)COC2)c(F)c(O)c1O (centres unmarked) [Example 280]	100 to 1000 nM
COc1ccccc1C(=O)N1CCN(c2ccc3[nH]c(-c4cc(O)c(O)c(OC)c4)nc3c2)CC1 [Example 86]	1000 to 10000 nM
COc1cc(-c2nc3ccccc3n2C2(C)COC2)c(C(F)(F)F)c(O)c1O [Example 315]	10000 to 100000 nM
COc1cc(-c2nc3cc(NC(=O)C4CC4)ccc3n2C2(C)COC2)c(F)c(O)c1O [Example 204]	≤ 100 nM
COc1cc(-c2nc3cc(N4CCN(C(C)=O)CC4)ccc3n2C(C)=O)cc(O)c1O [Example 27]	10000 to 100000 nM

For each of the items listed, what is its IC50?
1. COc1cc(-c2nc3cc(C4CCNCC4)ccc3[nH]2)cc(O)c1O [Example 58]
2. COc1cc(-c2nc3ccccc3n2C2(C)CCC2)c(C)c(O)c1O [Example 225]
3. COc1cc(-c2nc3cc(NC(C)=O)ccc3n2C2(C)COC2)c(C)c(O)c1O [Example 311]
4. COc1cc(-c2nc3ccc(C(=O)Nc4cnoc4)cc3n2C2(C)COC2)c(F)c(O)c1O [Example 247]
5. COC(=O)c1ccc2nc(-c3cc(OC)c(O)c(O)c3F)n(C3(C)COC3)c2c1 [Example 211]
6. COc1cc(-c2nc3cc(N4CCCC4)ccc3[nH]2)cc(O)c1O [Example 137]
7. COc1cc(-c2nc3ccc(C(=O)NC4CS(=O)(=O)C4)cc3n2C2(C)COC2)c(F)c(O)c1O [Example 307]

["> 100000 nM", "1000 to 10000 nM", "100 to 1000 nM", "≤ 100 nM", "≤ 100 nM", "1000 to 10000 nM", "≤ 100 nM"]
